- System: HOP-92 NSCLC
- EXPERIMENTAL_PROTOCOL: NCI-60 one-dose screen, 48 h
- STATED_CONDITIONS: 10 µM unless noted
This is part of a sample that, as a whole, favours compounds with a hit. Of some 83,000 tested, about 20% had one in any assay. Active and inactive are the calls of the source. How the source made its calls: active means growth percent below 10; inactive means the rest.
Assign a class; possible classes are active, inactive

Query: Any idea what this test logged for CCC(=O)C(CC)c1cccc(OC)c1 (stereo not given) ?
Result: inactive

Query: Moving on to COc1ccc(CCN(C)CCCC(C#N)(c2ccc(OC)c(OC)c2)C(C)C)cc1OC (stereo not given)
Result: inactive

Query: Moving on to ClC/C=C/CSc1ncnc2nc[nH]c12
Result: inactive

Query: Moving on to COc1cc(NS(C)(=O)=O)ccc1Nc1c2ccccc2nc2c(C)cccc12
Result: active

Query: Moving on to CCC(C)C1(C2CCCC2)NC(=O)NC1=O (stereo not given)
Result: inactive

Query: Moving on to CC(C)CNC(=O)c1ccccc1C(=O)NC1(C(=O)NCC(C)C)CCCC1
Result: inactive

Query: Moving on to CCN(CC)C(=O)c1cccnc1
Result: inactive

Query: Moving on to NCCSC(C[N+](=O)[O-])c1ccccc1Cl (stereo not given)
Result: inactive

Query: Moving on to O=[N+]([O-])c1ccc(-n2[nH]nnc2=S)cc1
Result: inactive

Query: Moving on to Cc1cccc(/C=C\C(=O)c2ccccc2)c1
Result: inactive

Query: Moving on to Cc1cc(N=Nc2ccc(C)c(N=Nc3cc(C)c(N)cc3N)c2)c(N)cc1N
Result: inactive

Query: Moving on to CC1=C(/C=C/C(C)=C/C=C/C(C)=C/C(=O)Nc2ccc(O)cc2)C(C)(C)CCC1
Result: inactive

Query: Moving on to Clc1nc(Oc2ccccc2)nc(-c2cn(-c3ccccc3)c3ccccc23)n1
Result: active

Query: Moving on to CC12CCC(CC1)C(C)(C)O2
Result: inactive

Query: Moving on to Nc1ccccc1Nc1ccccc1
Result: inactive

Query: Moving on to CN1CCN(CCC=C2c3ccccc3Sc3ccc(S(=O)(=O)N(C)C)cc32)CC1
Result: inactive

Query: Moving on to O=[N+]([O-])c1ccc(N/N=C\c2cc(Br)ccc2O)nc1
Result: inactive

Query: Moving on to O=C(Cc1cccc2ccccc12)N/N=C/c1ccc2c(c1)CCC2
Result: inactive

Query: Moving on to N#CCCOc1ccccc1
Result: inactive

Query: Moving on to O=C1c2ccccc2C(=O)N1/N=C/c1ccc2c(c1)OCO2
Result: inactive

Query: Moving on to O=[N+]([O-])c1ccccc1/C=N\Nc1ccccc1
Result: inactive

Query: Moving on to O=C(O)c1cc(C(=O)O)cc([N+](=O)[O-])c1
Result: inactive

Query: Moving on to Cc1ccc2nc3c(nc2c1)-c1cccc2cccc-3c12
Result: inactive

Query: Moving on to O=C1NC(=O)C2(CCc3ccccc32)N1 (stereo not given)
Result: inactive

Query: Moving on to NS(=O)(=O)c1cc2c(cc1Cl)NC(C(Cl)Cl)NS2(=O)=O (stereo not given)
Result: inactive

====

For each of the compounds below, state its growth.
- System: HS 578T breast
- EXPERIMENTAL_PROTOCOL: NCI-60 one-dose screen, 48 h (100 = growth as untreated, 0 = no growth, -100 = all killed)
- STATED_CONDITIONS: 10 µM unless noted
About 83,000 compounds went through this panel and 20% of them were active in at least one assay; those are over-represented in the sample as a whole.
Write the answer as a number in %, unit excluded.

Query: Item: O=[N+]([O-])c1ccccc1N(S(=O)(=O)c1ccccc1)S(=O)(=O)c1ccccc1 Test system: HS 578T breast Read-out: growth Value: ?
Result: 113

Query: Moving on to O=C(O)c1cc(C(=O)O)cc([N+](=O)[O-])c1
Result: 112

Query: Moving on to N=C1N=C(N)CS1
Result: 109

Query: Moving on to N#CCCOc1ccccc1
Result: 99.5

Query: Moving on to Oc1ccc(/C=C/c2ccccc2)cc1
Result: 86.7

Query: Moving on to S=C(S)N1CCCC1
Result: 106

Query: Moving on to CNC(=O)c1cccnc1
Result: 107

Query: Moving on to c1ccc(N(c2ccccc2)c2ccccc2)cc1
Result: 110

Query: Moving on to CCN(CC)C(=O)c1cccnc1
Result: 108

Query: Moving on to CC(O)(CC(=O)CC(=O)c1ccccc1)c1ccccc1 (stereo unspecified)
Result: 102

Query: Moving on to NCCSC(C[N+](=O)[O-])c1ccccc1Cl (stereo unspecified)
Result: -1.76

Query: Moving on to CCN(CC)CCCC(CNc1ccnc2cc(Cl)ccc12)c1ccc(Cl)cc1 (stereo unspecified)
Result: 21.6

Query: Moving on to CCN(CC)CCC(CNc1ccnc2cc(Cl)ccc12)c1ccc(OC)cc1 (stereo unspecified)
Result: 74

Query: Moving on to CC1=C(/C=C/C(C)=C/C=C/C(C)=C/C(=O)Nc2ccc(O)cc2)C(C)(C)CCC1
Result: 63.3

Query: Moving on to CCCCCCCCCCCCOc1ccccc1C=O
Result: 97

Query: Moving on to CNC(=O)c1cc(Oc2ccc(NC(=O)Nc3ccc(Cl)c(C(F)(F)F)c3)cc2)ccn1
Result: -8.13

Query: Moving on to Cc1ccc2nc3c(nc2c1)-c1cccc2cccc-3c12
Result: 92.9

Query: Moving on to Nc1ccc2[nH]c(-c3ccccc3)cc(=O)c2c1
Result: 107

Query: Moving on to COc1cc(C(=O)N/N=C/c2ccc(N(C)C)cc2)cc(OC)c1OC
Result: 46.4

Query: Moving on to O=C=NC(c1ccccc1)(c1ccccc1)c1ccccc1
Result: 111

Query: Moving on to Fc1ccccc1Nc1n[nH]c(=S)s1
Result: 107

Query: Moving on to CCC(=O)C(CC)c1cccc(OC)c1 (stereo unspecified)
Result: 106

Query: Moving on to CCN(CC)CCC(CNc1c2ccc([N+](=O)[O-])cc2nc2cc(OC)c(OC)cc12)c1ccccc1 (stereo unspecified)
Result: 44.4

Query: Moving on to O=C1c2ccccc2C(=O)N1/N=C/c1ccc2c(c1)OCO2
Result: 78.7

Query: Moving on to Nc1ccccc1SC1CC(=O)N(c2cccc3ccccc23)C1=O (stereo unspecified)
Result: 97.9

Query: Moving on to CCOc1ccc2nc3cc(N)ccc3c(N)c2c1
Result: 28.8

====

- System: SW-620 colon
- EXPERIMENTAL_PROTOCOL: NCI-60 one-dose screen, 48 h (100 = growth as untreated, 0 = no growth, -100 = all killed)
- STATED_CONDITIONS: 10 µM unless noted
Compounds without any hit were thinned out: in the full panel of roughly 83,000, 20% have a hit.
RESULT_TYPE: growth (%)
Write the answer as a number in %, unit excluded.

Query: # input molecule: CCN(CC)CCC(CNc1c2ccc([N+](=O)[O-])cc2nc2cc(OC)c(OC)cc12)c1ccccc1 (configuration not stated) ; wanted: its growth
Result: 6.7

Query: Moving on to CCOC(=O)c1sc(N)nc1-c1ccccc1
Result: 109

Query: Moving on to Fc1ccccc1Nc1n[nH]c(=S)s1
Result: 105

Query: Moving on to Clc1nc(Oc2ccccc2)nc(-c2cn(-c3ccccc3)c3ccccc23)n1
Result: 12.4

Query: Moving on to N=C1N=C(N)CS1
Result: 102

Query: Moving on to CCOC(=O)C(CNc1ccccc1)C(=O)OCC
Result: 104

Query: Moving on to CC1(c2ccc3ccccc3c2)CCC(=O)O1 (configuration not stated)
Result: 108

Query: Moving on to O=[N+]([O-])c1ccc2nc3c4ccccc4c4ccccc4c3nc2c1
Result: 63.4

Query: Moving on to O=C(CCc1ccc(O)cc1)N/N=C/c1cc(Br)ccc1O
Result: 59.5

Query: Moving on to O=C(Cc1cccc2ccccc12)N/N=C/c1ccc2c(c1)CCC2
Result: 54.8

Query: Moving on to O=C(O)c1cc(C(=O)O)cc([N+](=O)[O-])c1
Result: 107

Query: Moving on to CCN(CC)C(=O)c1cccnc1
Result: 106

====

- System: SN12C renal
- EXPERIMENTAL_PROTOCOL: NCI-60 one-dose screen, 48 h (100 = growth as untreated, 0 = no growth, -100 = all killed)
- STATED_CONDITIONS: 10 µM unless noted
This is part of a sample that, as a whole, favours compounds with a hit. Of some 83,000 tested, about 20% had one in any assay. Calls of active or inactive are those of the source. How the source made its calls: active means growth percent below 10; inactive means the rest.
RESULT_TYPE: growth

Query: # input compound: Fc1ccccc1Nc1n[nH]c(=S)s1 ; wanted: its growth
Result: 99.9% (inactive)

Query: Moving on to NC(=O)c1ccccc1OCC(O)CO (stereo not drawn)
Result: 101% (inactive)

Query: Moving on to O=C1c2c(O)cc(O)cc2OC(c2ccc(O)c(O)c2)C1O (stereo not drawn)
Result: 104% (inactive)

Query: Moving on to Nc1n[nH]c(=S)n1-c1ccc(Cl)cc1
Result: 100% (inactive)

Query: Moving on to N#C/C(=C/c1c(O)ccc2ccccc12)C(N)=O
Result: 108% (inactive)

Query: Moving on to Cc1cc(O)c(C(C)C)cc1N
Result: 114% (inactive)

Query: Moving on to O=C(CCc1ccc(O)cc1)N/N=C/c1cc(Br)ccc1O
Result: 63.7% (inactive)

Query: Moving on to NC(=S)N/N=C(\c1ccc(Br)cc1)C1CC1
Result: 89.5% (inactive)

Query: Moving on to COc1cc(C(=O)N/N=C/c2ccc(N(C)C)cc2)cc(OC)c1OC
Result: 41.3% (inactive)

Query: Moving on to CC1(c2ccc3ccccc3c2)CCC(=O)O1 (stereo not drawn)
Result: 102% (inactive)

Query: Moving on to CCC(=O)C(CC)c1cccc(OC)c1 (stereo not drawn)
Result: 112% (inactive)

Query: Moving on to CC1=C(/C=C/C(C)=C/C=C/C(C)=C/C(=O)Nc2ccc(O)cc2)C(C)(C)CCC1
Result: 39.2% (inactive)

Query: Moving on to Cc1ccc(-c2noc(C)n2)cc1
Result: 102% (inactive)

Reference for the values: PubChem BioAssay (NCI)
